Lab note: EC50 readings collected with Estrogen receptor beta (Homo sapiens, UniProt Q92731) for the following compounds.
Sequence (Q92731 whole entry): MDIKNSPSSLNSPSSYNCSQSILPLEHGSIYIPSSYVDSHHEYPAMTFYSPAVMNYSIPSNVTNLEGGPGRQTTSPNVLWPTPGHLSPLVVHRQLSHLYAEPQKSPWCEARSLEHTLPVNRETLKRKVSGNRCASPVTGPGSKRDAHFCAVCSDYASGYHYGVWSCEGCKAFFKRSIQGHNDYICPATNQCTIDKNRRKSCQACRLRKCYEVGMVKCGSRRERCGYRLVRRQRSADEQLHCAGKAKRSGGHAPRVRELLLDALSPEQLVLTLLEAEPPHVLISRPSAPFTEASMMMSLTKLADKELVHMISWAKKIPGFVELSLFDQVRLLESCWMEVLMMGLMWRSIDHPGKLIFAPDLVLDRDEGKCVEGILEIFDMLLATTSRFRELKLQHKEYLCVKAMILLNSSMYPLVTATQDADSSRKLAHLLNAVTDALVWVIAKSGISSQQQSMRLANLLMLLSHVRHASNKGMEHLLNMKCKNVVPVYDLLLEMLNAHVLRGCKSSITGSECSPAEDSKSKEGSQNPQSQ
Please give a number only; it is taken to be in nM.

Exam item: Find the recorded EC50 belonging to CCC1(Cc2ccc(O)cc2)CCc2cc(O)ccc21 (configuration not stated) and report it.
Marked response: 0.36

Exam item: Query Oc1ccc(CC2CCCc3cc(O)ccc32)cc1 (configuration not stated) next
Marked response: 0.18

Exam item: Query N#CC1(Cc2ccc(O)cc2Cl)CCc2cc(O)ccc21 (configuration not stated) next
Marked response: 0.05

Exam item: Query N#CCC1(Cc2ccc(O)cc2)CCc2cc(O)ccc21 (configuration not stated) next
Marked response: 3.05

Exam item: Query N#CC1(Cc2ccc(O)cc2F)CCc2cc(O)ccc21 (configuration not stated) next
Marked response: 0.15

Exam item: Query Oc1ccc(CC2CCc3ccc(O)cc32)cc1 (configuration not stated) next
Marked response: 25.9

Exam item: Query N#CC1(Cc2ccc(O)c(Cl)c2)CCc2cc(O)ccc21 (configuration not stated) next
Marked response: 11.6
